Target: CDK6 (Homo sapiens (Human))
Test: Phospho-Serine 795 Rb ELISA assay in MV4-11 cells
Settings: treated overnight, phospho-Ser795 Rb, read-out: CDK6 pRB S795 ELISA MV4-11 cells IC50
So basically, if IC50 comes in under 100 nM it's class 1, and if it's 100 nM or more it's class 0.

These recorded examples may help you get a feel for the data.
{"COMPOUND": "CC(C)n1c(C(C)(C)O)nc2c(F)cc(-c3nc(N[C@H]4CCOC[C@H]4O)ncc3Cl)cc21", "ASSIGNED CATEGORY": "class 0"}
{"COMPOUND": "CCC1COCc2nc3c(F)cc(-c4nc(N[C@@H]5CCN(S(C)(=O)=O)C[C@H]5O)ncc4F)cc3n21 (some centres unmarked)", "ASSIGNED CATEGORY": "class 1"}
{"COMPOUND": "CC(C)c1c2cc(-c3nc(N[C@@H]4CCN(S(C)(=O)=O)C[C@H]4O)ncc3Cl)cc(F)c2nn1C", "ASSIGNED CATEGORY": "class 1"}

Continue with the compound presented below.
Would you kindly verify if IC50 of `CC1(C)COCc2nc3c(F)cc(-c4nc(N[C@@H]5CCN(S(C)(=O)=O)C[C@H]5O)ncc4F)cc3n21` is strictly less than 100 nM?
class 1

----------
Biological target: CDK4/Cyclin D1 (Homo sapiens (Human), UniProt P11802)
Sequence (P11802 whole entry): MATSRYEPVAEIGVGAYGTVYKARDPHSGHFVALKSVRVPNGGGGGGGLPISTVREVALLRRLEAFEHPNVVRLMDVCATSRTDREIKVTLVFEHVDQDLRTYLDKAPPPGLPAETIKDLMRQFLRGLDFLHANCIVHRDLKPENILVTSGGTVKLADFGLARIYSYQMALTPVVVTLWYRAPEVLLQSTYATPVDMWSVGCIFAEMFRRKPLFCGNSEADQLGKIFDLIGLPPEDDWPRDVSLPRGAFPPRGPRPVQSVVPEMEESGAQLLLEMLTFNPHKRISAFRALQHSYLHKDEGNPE
Sequence (P24385 whole entry partner): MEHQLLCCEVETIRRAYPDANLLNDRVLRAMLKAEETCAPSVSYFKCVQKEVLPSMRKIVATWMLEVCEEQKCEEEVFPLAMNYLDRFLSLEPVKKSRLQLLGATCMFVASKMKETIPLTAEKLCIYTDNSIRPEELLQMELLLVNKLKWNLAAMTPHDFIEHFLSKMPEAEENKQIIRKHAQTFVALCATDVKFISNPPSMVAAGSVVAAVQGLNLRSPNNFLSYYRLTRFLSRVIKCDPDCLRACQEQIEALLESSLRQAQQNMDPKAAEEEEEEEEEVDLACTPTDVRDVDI
Assay: CDK4/Cyclin D1 mobility shift assay
Settings: activated CDK4/Cyclin D1, 3.5 mM ATP, fit to Morrison equation; read-out: CDK4D1 Ki
PARAMETER MEASURED: Ki (nM)
Give bare numbers, in nM.

{"COMPOUND": "CCC1COCc2nc3c(F)cc(-c4nc(N[C@@H]5CCN(S(C)(=O)=O)C[C@H]5O)ncc4F)cc3n21 (stereo partly drawn) [Example A17]", "PARAMETER MEASURED": "Ki", "NUMERIC READOUT": 0.1}
{"COMPOUND": "CS(=O)(=O)N1CC[C@@H](Nc2ncc(Cl)c(-c3cc(F)c4ncn(C5CC5)c4c3)n2)[C@H](O)C1 [Example A15]", "PARAMETER MEASURED": "Ki", "NUMERIC READOUT": 0.3}
{"COMPOUND": "CC(C)n1cnc2c(Cl)cc(-c3nc(N[C@@H]4CCN(S(C)(=O)=O)C[C@H]4O)ncc3Cl)cc21 [Example A16]", "PARAMETER MEASURED": "Ki", "NUMERIC READOUT": 0.2}
{"COMPOUND": "CS(=O)(=O)N1CC[C@@H](Nc2ncc(Cl)c(-c3cc(F)c4ncn(C5CCOC5)c4c3)n2)[C@H](O)C1 (stereo partly drawn) [Example A14]", "PARAMETER MEASURED": "Ki", "NUMERIC READOUT": 0.5}
{"COMPOUND": "CC1(C)COCc2nc3c(F)cc(-c4nc(N[C@@H]5CCN(S(C)(=O)=O)C[C@H]5O)ncc4F)cc3n21 [Example A18]", "PARAMETER MEASURED": "Ki", "NUMERIC READOUT": 0.2}

Here is the next item to consider.
Return reported Ki; argument: CC(C)n1c(C(C)(C)O)nc2c(F)cc(-c3nc(N[C@H]4CCOC[C@H]4O)ncc3Cl)cc21 [Example A35]
1.5

----------
Field: pIC50. Provide a value for each of the compounds that follow.
Molecular target: UniProt:P11802
Assay: Phospho-Serine 795 Rb ELISA assay in JEKO-1 cells
Conditions: treated overnight, phospho-Ser795 Rb, read-out: CDK4 pRB S795 ELISA JEKO-1 cells IC50
Give bare numbers, as −log10 of the molar value.

Some compounds with known pIC50 results, for comparison:
{"COMPOUND": "CC(C)n1c(C(C)(C)O)nc2c(F)cc(-c3nc(N[C@H]4CCOC[C@H]4O)ncc3Cl)cc21 [Example A35]", "NUMERIC READOUT": 6.91}
{"COMPOUND": "CC(C)c1c2cc(-c3nc(N[C@@H]4CCN(S(C)(=O)=O)C[C@H]4O)ncc3Cl)cc(F)c2nn1C [Example A25]", "NUMERIC READOUT": 7.88}
{"COMPOUND": "CC1(C)COCc2nc3c(F)cc(-c4nc(N[C@@H]5CCN(S(C)(=O)=O)C[C@H]5O)ncc4F)cc3n21 [Example A18]", "NUMERIC READOUT": 7.60}
{"COMPOUND": "CCC1COCc2nc3c(F)cc(-c4nc(N[C@@H]5CCN(S(C)(=O)=O)C[C@H]5O)ncc4F)cc3n21 (some centres unmarked) [Example A17]", "NUMERIC READOUT": 8.00}

Return reported pIC50; argument: CC(C)n1cnc2c(Cl)cc(-c3nc(N[C@@H]4CCN(S(C)(=O)=O)C[C@H]4O)ncc3Cl)cc21 [Example A16]
7.59

----------
Target: CDK6/Cyclin D3 (Homo sapiens (Human))
Sequence (Q00534 whole entry): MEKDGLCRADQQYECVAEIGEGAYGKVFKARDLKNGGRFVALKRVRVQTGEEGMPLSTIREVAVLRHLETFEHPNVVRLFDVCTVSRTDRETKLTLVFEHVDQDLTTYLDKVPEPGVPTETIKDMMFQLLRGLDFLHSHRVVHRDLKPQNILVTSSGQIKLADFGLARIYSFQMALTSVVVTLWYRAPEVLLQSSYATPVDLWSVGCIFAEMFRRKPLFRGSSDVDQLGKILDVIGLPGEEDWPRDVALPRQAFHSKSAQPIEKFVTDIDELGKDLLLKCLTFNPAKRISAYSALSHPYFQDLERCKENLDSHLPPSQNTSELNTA
Sequence (P30281 whole entry partner): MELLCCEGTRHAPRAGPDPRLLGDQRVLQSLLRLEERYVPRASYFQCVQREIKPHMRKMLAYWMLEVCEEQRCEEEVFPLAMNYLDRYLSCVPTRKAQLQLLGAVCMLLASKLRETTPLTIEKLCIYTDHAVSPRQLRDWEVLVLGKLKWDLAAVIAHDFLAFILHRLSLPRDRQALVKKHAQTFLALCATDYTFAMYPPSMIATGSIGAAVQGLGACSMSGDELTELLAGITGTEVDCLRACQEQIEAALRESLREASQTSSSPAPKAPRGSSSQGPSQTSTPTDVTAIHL
Assay: CDK6/Cyclin D3 mobility shift assay
Assay type: biochemical
Conditions: activated CDK6/Cyclin D3, 3.5 mM ATP, fit to Morrison equation; read-out: CDK6_D3 Ki
PARAMETER MEASURED: pKi
Answers are plain numbers, as −log10 of the molar value.

{"MOLECULE": "CS(=O)(=O)N1CC[C@@H](Nc2ncc(Cl)c(-c3cc(F)c4ncn(C5CC5)c4c3)n2)[C@H](O)C1 [Example A15]", "NUMERIC READOUT": 8.62}
{"MOLECULE": "CS(=O)(=O)N1CC[C@@H](Nc2ncc(Cl)c(-c3cc(F)c4ncn(C5CCOC5)c4c3)n2)[C@H](O)C1 (stereo partly shown) [Example A14]", "NUMERIC READOUT": 8.34}
{"MOLECULE": "CC(C)n1cnc2c(Cl)cc(-c3nc(N[C@@H]4CCN(S(C)(=O)=O)C[C@H]4O)ncc3Cl)cc21 [Example A16]", "NUMERIC READOUT": 8.57}

Here is the next item to consider.
Return reported pKi; argument: CCC1COCc2nc3c(F)cc(-c4nc(N[C@@H]5CCN(S(C)(=O)=O)C[C@H]5O)ncc4F)cc3n21 (stereo partly shown) [Example A17]
9.40

----------
Field: Ki. Provide a value for each of the compounds that follow.
Target: CDK6/Cyclin D3 (Homo sapiens (Human))
Assay: CDK6/Cyclin D3 mobility shift assay
Conditions: activated CDK6/Cyclin D3, 3.5 mM ATP, fit to Morrison equation; read-out: CDK6_D3 Ki
Protocol: CDK6/Cyclin D3 Mobility Shift Assay The purpose of the CDK6/Cyclin D3 assay is to evaluate the inhibition (% inhibition, Kiapp and Ki values) in the presence of small molecule inhibitors by using a fluorescence based microfluidic mobility shift assay. […] Both substrate and product are measured and the ratio of these values is used to generate % conversion of substrate to product by the LabChip EZ Reader. […]
Numbers only, in nM.

Some compounds with known Ki results, for comparison:
{"INPUT SMILES": "CC(C)c1c2cc(-c3nc(N[C@@H]4CCN(S(C)(=O)=O)C[C@H]4O)ncc3Cl)cc(F)c2nn1C", "EXPERIMENTAL TARGET": "CDK6/Cyclin D3 (Homo sapiens (Human))", "Ki [nM]": 1.3}
{"INPUT SMILES": "CC1(C)COCc2nc3c(F)cc(-c4nc(N[C@@H]5CCN(S(C)(=O)=O)C[C@H]5O)ncc4F)cc3n21", "EXPERIMENTAL TARGET": "CDK6/Cyclin D3 (Homo sapiens (Human))", "Ki [nM]": 2.3}

Return reported Ki; argument: `CC(C)n1c(C(C)(C)O)nc2c(F)cc(-c3nc(N[C@H]4CCOC[C@H]4O)ncc3Cl)cc21`
58.9

Cited source for all entries: patent US11220494B2
